# assay.procedure: protein stability index of a GFP-peptide fusion (GPS, HEK-293T) (PSI 1-6); higher = more stable;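 further: 24-mer peptide tiles fused after GFP, lentivirally expressed, FACS-sorted into six equal bins by GFP/DsRed ratio, decoded by Illumina sequencing, PSI is the read-weighted mean bin number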
# experimental.conditions: treatment: DMSO; c terminus: a fixed tail appended
quantity: protein stability index
# answer = number (no unit)

The examples below pair each entry with its known result.
seq.text	value.reported
QLDGLGFLYVTGHIKEILITAGGE [ACSBG2]	2.66
LGIHEDSTNRRRLSELLRYHTSQS [HSP90AB1]	3.5
IHKASATIIEPAGESDNPLRFTSG [INTS4]	4.03
IFSAPNYCYRCGNQAAIMELDDTL [PPP2CA]	2.37
LRQQQHKQNKQVLGYCLLLMLAGM [DNAJC4]	2.28
ERLTAPEILLHPWFESVLEPGYID [TRIB1]	3.26
SWSALWNITDETPDNCEMFLNFNG [ZER1]	2.61
QPSGMKEGVKRYEQEHAAIQDKLF [CHCHD6]	4.55

Entry LPWQGLKADTLKERYQKIGDTKRA [CSNK1G3] — recorded protein stability index = 3.77

get_value(item= RGVHCWVCDESVRKLSSAVRSGIV [PRIM1] , readout=protein stability index) returns 2.24

The sequence identified as LVAEVPKEHWTPEGHSIVGFAMYY [SAT1] registered its protein stability index at 2.81

Lab note: measured protein stability index of EFQERARKRIRTYLKSCRRMKKNG [NOL4L] was 3.31

In plain terms, QAIVTEDKTDISSGRARQQDEEML [MLH1] has a documented protein stability index of 5.23
